Molecular target: UniProtKB Q96RI1
Sequence (Q96RI1 262-486 limits assumed): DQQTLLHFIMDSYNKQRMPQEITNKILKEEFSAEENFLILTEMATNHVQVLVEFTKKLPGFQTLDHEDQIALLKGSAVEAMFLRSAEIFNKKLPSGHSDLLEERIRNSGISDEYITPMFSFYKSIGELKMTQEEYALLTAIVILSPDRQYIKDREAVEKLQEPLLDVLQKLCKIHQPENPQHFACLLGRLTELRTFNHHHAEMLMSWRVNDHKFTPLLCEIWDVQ
Test: transient human FXR/Gal4-luciferase reporter assay
Details: Gal4-hFXR fusion construct, luciferase reporter in HEK293 cells; overnight incubation; response as percentage of 8 μM GW-4064 control
property.measured: EC50 (nM)

For orientation, consider the following solved cases.
CC(C)(C)c1noc(C23CCC(CN(C(=O)C45CC(F)(C4)C5)c4cccc(Br)c4)(CC2)C3)n1; 498
CC(F)(F)c1nc(C23CCC(CN(c4cccc(S(=O)(=O)NC5CC5)c4)C(=O)[C@H]4C[C@](O)(C(F)(F)F)C4)(CC2)CC3)no1; 4000
O=C(N(CC12CCC(c3ccc(C(F)(F)F)cn3)(CC1)CC2)c1cccc(Nc2ncc(OC(F)F)cn2)c1)C12CC(F)(C1)C2; 132
CC(C)(O)COc1cccc(N(CC23CCC(c4noc(C(C)(C)C)n4)(CC2)CC3)C(=O)C23CC(F)(C2)C3)c1; 63
CC(F)(F)c1nc(C23CCC(CN(C(=O)C4CCC(F)(F)CC4)c4ccc(F)c(F)c4)(CC2)CC3)no1; 881

P: CS(=O)(=O)c1cccc(N(CC23CCC(c4nc(C5CC5)no4)(CC2)CC3)C(=O)C23CC(F)(C2)C3)c1
Q: CC(F)(F)c1nc(C23CCC(CN(C(=O)C45CC(F)(C4)C5)c4cccc(C(F)(F)F)c4)(CC2)CC3)no1
Q: Returns the identifier with the smallest measured EC50 among P and Q . Select an item and report its label.
A: Q
